Here the recorded pIC50 is given for each entry.
Target: Neuronal acetylcholine receptor; alpha9/alpha10 (Homo sapiens, UniProt Q9GZZ6+Q9UGM1)
Sequence (Q9UGM1 whole entry): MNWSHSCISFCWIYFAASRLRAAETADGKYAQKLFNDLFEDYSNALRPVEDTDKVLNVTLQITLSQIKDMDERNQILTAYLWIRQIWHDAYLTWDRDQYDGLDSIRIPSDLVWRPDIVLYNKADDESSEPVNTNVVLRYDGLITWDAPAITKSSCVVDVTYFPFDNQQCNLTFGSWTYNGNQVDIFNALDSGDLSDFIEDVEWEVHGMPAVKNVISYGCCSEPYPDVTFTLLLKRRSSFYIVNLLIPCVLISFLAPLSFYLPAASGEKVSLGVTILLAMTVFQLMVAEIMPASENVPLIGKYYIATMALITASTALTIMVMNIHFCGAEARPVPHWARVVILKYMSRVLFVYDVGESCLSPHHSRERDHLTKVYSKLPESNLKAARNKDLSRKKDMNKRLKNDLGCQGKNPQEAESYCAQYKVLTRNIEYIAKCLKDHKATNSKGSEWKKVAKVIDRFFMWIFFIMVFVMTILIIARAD
Sequence (Q9GZZ6 whole entry): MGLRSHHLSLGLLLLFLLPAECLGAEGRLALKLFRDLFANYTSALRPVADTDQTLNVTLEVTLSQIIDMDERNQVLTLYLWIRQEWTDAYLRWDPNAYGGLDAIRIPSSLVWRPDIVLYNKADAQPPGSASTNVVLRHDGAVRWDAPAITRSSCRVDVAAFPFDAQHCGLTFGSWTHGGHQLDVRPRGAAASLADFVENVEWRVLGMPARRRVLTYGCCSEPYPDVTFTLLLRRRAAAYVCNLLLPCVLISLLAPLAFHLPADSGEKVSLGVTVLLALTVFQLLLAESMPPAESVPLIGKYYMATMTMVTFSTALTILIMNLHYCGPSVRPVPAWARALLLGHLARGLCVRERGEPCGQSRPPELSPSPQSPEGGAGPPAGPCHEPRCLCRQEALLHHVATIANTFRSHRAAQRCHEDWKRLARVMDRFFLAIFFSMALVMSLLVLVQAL
Experiment: Antagonist activity at human alpha9alpha10 nACh receptor expressed in Xenopus oocyte assessed as inhibition of acetylcholine-induced response at -70 mV holding potential by voltage-clamp based electrophysiological assay
pIC50: −log10 of the molar value. Where a SMILES comes first, the peptide text is derived from it.
assay-readout: pIC50

compound	assay-readout	recorded-result
CC(C)C[C@H](NC(=O)[C@H](CCC(=O)O)NC(=O)[C@@H]1CCCN1C(=O)[C@H](Cc1cnc[nH]1)NC(=O)[C@H](CC(N)=O)NC(=O)[C@@H](NC(=O)[C@H](CO)NC(=O)[C@H](CS)NC(=O)[C@H](C)NC(=O)[C@@H]1CCCN1C(=O)[C@H](Cc1cnc[nH]1)NC(=O)[C@H](CO)NC(=O)[C@H](CS)NC(=O)[C@H](CS)NC(=O)CN)C(C)C)C(=O)N[C@@H](CS)C(N)=O (H-GCCSHPACSVNHPELC-NH2)	pIC50	7.65
N=C(N)NCCC[C@H](NC(=O)[C@H](CS)NC(=O)[C@H](CCCNC(=N)N)NC(=O)[C@H](Cc1ccc(O)cc1)NC(=O)[C@H](CCCNC(=N)N)NC(=O)[C@H](CS)NC(=O)[C@H](CCCNC(=N)N)NC(=O)[C@@H]1CCCN1C(=O)[C@H](CC(=O)O)NC(=O)[C@H](CO)NC(=O)[C@H](CS)NC(=O)[C@H](CS)NC(=O)CN)C(=O)O	pIC50	6.31
C[C@@H](O)[C@H](NC(=O)[C@H](CS)NC(=O)[C@H](CS)NC(=O)CN)C(=O)N[C@@H](CC(=O)O)C(=O)N1CCC[C@H]1C(=O)N[C@@H](CCCNC(=N)N)C(=O)N[C@@H](CS)C(=O)N[C@@H](CCCNC(=N)N)C(=O)N[C@@H](Cc1ccc(O)c(I)c1)C(=O)N[C@@H](CCC(N)=O)C(=O)N[C@@H](CS)C(=O)N[C@@H](Cc1ccc(O)cc1)C(=O)O	pIC50	8.82
CC[C@H](C)[C@H](NC(=O)[C@H](CCC(=O)O)NC(=O)[C@@H]1CCCN1C(=O)[C@H](Cc1cnc[nH]1)NC(=O)[C@H](CC(=O)O)NC(=O)[C@H](Cc1ccc(O)cc1)NC(=O)[C@H](CC(N)=O)NC(=O)[C@H](CS)NC(=O)[C@H](CCCNC(=N)N)NC(=O)[C@@H]1CCCN1C(=O)[C@H](CC(=O)O)NC(=O)[C@H](CO)NC(=O)[C@H](CS)NC(=O)[C@H](CS)NC(=O)CN)C(=O)N[C@@H](CS)C(N)=O	pIC50	6.49
